All figures here come from patent US8785488B2.

assayed_system: h-TGR5 (Homo sapiens, UniProt Q8TDU6)
Construct: expressed in transfected cells
protocol_text: TGR5 cAMP Assay using Cisbio cAMP Dynamic2 htrf kit (hTGR5CRE-luc HEK 293 cells)
Format: cell-based
test_settings: h-TGR5 cAMP EC50, Table 1; read-out: cAMP (EC50)
quantity: EC50

CC(C)(c1ccc(F)c(F)c1)c1cnc(SCc2ccc(S(N)(=O)=O)cc2Cl)n1-c1ccc(F)cc1 | 100 to 1000 nM
COc1ccc(C(C)(C)c2cnc(SCc3ccc(Cl)c(-c4nnn[nH]4)c3)n2-c2ccc(F)cc2)cc1Cl | 100 to 1000 nM
COc1cc(C(C)(C)c2cnc(SCc3ccc(S(=O)(=O)NC(=O)N4CCCC4)cc3Cl)n2-c2ccc(F)cc2)ccc1Cl | < 100 nM

Next:
Summary: `COc1cc(C(C)(C)c2cnc(SCc3ccc(C(=O)NCCC(=O)O)cc3F)n2-c2ccc(F)cc2)ccc1Cl` , h-TGR5 (Homo sapiens, UniProt Q8TDU6), EC50 = < 100 nM

---

assayed_system: h-TGR5 (Homo sapiens, UniProt Q8TDU6)
Construct: expressed in transfected cells
protocol_text: TGR5 cAMP Assay using Cisbio cAMP Dynamic2 htrf kit (hTGR5CRE-luc HEK 293 cells)
Type: cell-based
test_settings: h-TGR5 cAMP EC50, Table 1; read-out: cAMP (EC50)
pEC50: −log10 of the molar value.
quantity: pEC50

Field pEC50 (entry `COc1cc(C(C)(C)c2cnc(SCc3c(F)cc(S(=O)(=O)O)cc3Cl)n2-c2ccc(F)cc2)ccc1Cl` ) reads > 7.00

Field pEC50 (entry `COc1cc(-n2c(C(C)(C)c3ccc(S(N)(=O)=O)c(Cl)c3)cnc2SCc2ccc(S(=O)(=O)NC(=O)NN3CCOCC3)cc2Cl)ccc1F` ) reads > 7.00

Field pEC50 (entry `CC(C)(c1ccc(F)c(C(F)F)c1)c1cnc(SCc2ccc(S(=O)(=O)NC(=O)NN3CCCC3)cc2Cl)n1-c1ccc(F)cc1` ) reads 5.00 to 6.00

Field pEC50 (entry `COc1cc(C(C)(C)c2cnc(SCc3cc(S(N)(=O)=O)c(F)cc3Cl)n2-c2ccc(F)cc2)ccc1Cl` ) reads > 7.00

Field pEC50 (entry `COc1ccc(C(C)(C)c2cnc(SCc3ccc(F)c(S(N)(=O)=O)c3)n2-c2ccc(F)cc2)cc1OC` ) reads > 7.00

Field pEC50 (entry `COc1cc(C(C)(C)c2cnc(SCc3ccc(S(=O)(=O)NC(=O)NN4CCCC4)cc3Cl)n2-c2ccc(F)c(CO)c2)ccc1Cl` ) reads 6.00 to 7.00

Field pEC50 (entry `CC(C)(c1ccc(Cl)c(Cl)c1)c1cnc(SCc2ccc(F)c(C(N)=O)c2)n1-c1ccc(F)cc1` ) reads 6.00 to 7.00

Field pEC50 (entry `COc1cc(-n2c(C(C)(C)c3ccc(Cl)c(Cl)c3)cnc2SCC2CCN(C(=O)NC(C)C)CC2)ccc1F` ) reads 6.00 to 7.00

Field pEC50 (entry `CC(C)(c1ccc(Cl)c(Cl)c1)c1cnc(SCc2ccc(F)c(S(C)(=O)=O)c2)n1-c1ccc(F)cc1` ) reads 6.00 to 7.00

Field pEC50 (entry `COc1cc(C(C)(C)c2cnc(SCc3c(F)cc(S(=O)(=O)NCCS(=O)(=O)O)cc3F)n2-c2ccc(F)cc2)ccc1Cl` ) reads > 7.00

---

assayed_system: human TGR5 (h-TGR5) (Homo sapiens, UniProt Q8TDU6)
Construct: expressed in transfected cells
protocol_text: TGR5/CRE-Luciferiase Assay (HEK 293 hTGR5/CRE-Luc cells)
Format: cell-based
test_settings: h-TGR5 CRE-Luc EC50, Table 1; read-out: CRE-Luc (EC50)
Overview of reported EC50 across a group of molecules:

Check out these entries, answers already filled in.
COc1cc(C(C)(C)c2cnc(SCc3ccc(S(=O)(=O)NC(=O)N4CCCC4)cc3Cl)n2-c2ccc(F)cc2)ccc1Cl | 100 to 1000 nM
COc1ccc(C(C)(C)c2cnc(CSc3c(F)cccc3Cl)n2-c2ccc(F)cc2)cc1OC | < 100 nM
CC(C)(c1ccc(S(C)(=O)=O)cc1)c1cnc(SCc2c(F)cccc2Cl)n1-c1ccc(F)cc1 | 100 to 1000 nM
CC(C)(c1ccc(Cl)c(Cl)c1)c1cnc(SCc2ccc(S(=O)(=O)NC(=O)NN3CCCC3)cc2Cl)n1-c1ncc(F)cc1F | 100 to 1000 nM
O=C(O)c1cc(F)c(CSc2ncc(C3(c4ccc(Cl)c(Cl)c4)CC3)n2-c2ccc(F)cc2)c(F)c1 | 100 to 1000 nM

Field EC50 (entry `COc1cc(C(C)(C)c2cnc(SCc3ccc(S(=O)(=O)NC(=O)Nc4nccs4)cc3Cl)n2-c2ccc(F)cc2)ccc1Cl` ) reads 100 to 1000 nM

---

assayed_system: human TGR5 (h-TGR5) (Homo sapiens, UniProt Q8TDU6)
Construct: expressed in transfected cells
Sequence (Q8TDU6 1-330): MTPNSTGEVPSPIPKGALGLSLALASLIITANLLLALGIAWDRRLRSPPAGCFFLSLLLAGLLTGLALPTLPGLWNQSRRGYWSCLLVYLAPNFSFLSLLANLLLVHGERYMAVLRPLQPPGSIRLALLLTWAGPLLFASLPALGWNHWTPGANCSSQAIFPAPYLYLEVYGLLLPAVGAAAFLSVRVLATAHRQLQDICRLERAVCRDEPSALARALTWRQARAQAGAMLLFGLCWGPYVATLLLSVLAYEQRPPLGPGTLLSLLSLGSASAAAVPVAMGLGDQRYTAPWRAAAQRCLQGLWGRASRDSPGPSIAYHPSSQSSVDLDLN
protocol_text: TGR5/CRE-Luciferiase Assay (HEK 293 hTGR5/CRE-Luc cells)
Assay type: cell-based
test_settings: h-TGR5 CRE-Luc EC50, Table 1; read-out: CRE-Luc (EC50)
pEC50: −log10 of the molar value.
Overview of reported pEC50 across a group of compounds:

Check out these entries, answers already filled in.
CC(C)(c1ccc(Cl)c(Cl)c1)c1cnc(SCC2CCCN(c3nnn[nH]3)C2)n1-c1ccc(F)cc1 (centres unmarked) | 5.00 to 6.00
CC(C)(c1ccc(Cl)c(Cl)c1)c1cnc(S(=O)(=O)Nc2ccc(F)cc2Cl)n1-c1ccc(F)cc1 | 5.00 to 6.00
CN(C)CCOc1ccc(C(C)(C)c2cnc(SCc3c(F)cccc3Cl)n2-c2ccc(F)cc2)cc1 | 5.00 to 6.00
COc1cc(C(C)(C)c2cnc(SCc3ccc(S(=O)(=O)NC(=O)NN4CCOCC4)cc3Cl)n2-c2ccc(F)cc2)ccc1Cl | 6.00 to 7.00
CC(C)(c1ccc(Cl)c(Cl)c1)c1cnc(SCc2c(F)cccc2Cl)n1-c1ccc(F)cc1F | 6.00 to 7.00
COc1cc(-n2c(C(C)(C)c3ccc(S(C)(=O)=O)cc3)cnc2SCc2c(F)cc(C(=O)O)cc2F)ccc1F | 6.00 to 7.00

Field pEC50 (entry `CC(C)(c1ccc(Cl)c(Cl)c1)c1cnc(COc2ccnc3ccccc23)n1-c1ccc(F)cc1` ) reads 5.00 to 6.00

Field pEC50 (entry `CC(C)(c1ccc(Cl)c(Cl)c1)c1cnc(SCc2ccc(C(=O)O)cc2Cl)n1-c1ccc(F)cc1` ) reads 6.00 to 7.00

---

assayed_system: h-TGR5 (Homo sapiens, UniProt Q8TDU6)
Construct: expressed in transfected cells
protocol_text: TGR5 cAMP Assay using Cisbio cAMP Dynamic2 htrf kit (hTGR5CRE-luc HEK 293 cells)
Format: cell-based
test_settings: h-TGR5 cAMP EC50, Table 1; read-out: cAMP (EC50)
quantity: EC50

Check out these entries, answers already filled in.
CC(C)(c1ccc(S(N)(=O)=O)c(Cl)c1)c1cnc(SCc2ccc(S(=O)(=O)NC(=O)NN3CCCC3)cc2Cl)n1-c1ccc(F)cc1 | 100 to 1000 nM
CC(C)(c1ccc(F)c(F)c1)c1cnc(SCc2ccc(S(=O)(=O)NC(=O)NN3CCCC3)cc2Cl)n1-c1ccc(F)cc1F | 1000 to 10000 nM
COc1cc(C(C)(C)c2cnc(SCc3c(F)cc(C(=O)NCCCC(=O)O)cc3Cl)n2-c2ccc(F)cc2)ccc1Cl | < 100 nM

Field EC50 (entry COc1cc(C(C)(C)c2cnc(SCc3c(F)cc(C(=O)NCCCC(N)C(=O)O)cc3Cl)n2-c2ccc(F)cc2)ccc1Cl (stereo not shown) ) reads < 100 nM

---

assayed_system: h-TGR5 (Homo sapiens, UniProt Q8TDU6)
Construct: expressed in transfected cells
Sequence (Q8TDU6 1-330): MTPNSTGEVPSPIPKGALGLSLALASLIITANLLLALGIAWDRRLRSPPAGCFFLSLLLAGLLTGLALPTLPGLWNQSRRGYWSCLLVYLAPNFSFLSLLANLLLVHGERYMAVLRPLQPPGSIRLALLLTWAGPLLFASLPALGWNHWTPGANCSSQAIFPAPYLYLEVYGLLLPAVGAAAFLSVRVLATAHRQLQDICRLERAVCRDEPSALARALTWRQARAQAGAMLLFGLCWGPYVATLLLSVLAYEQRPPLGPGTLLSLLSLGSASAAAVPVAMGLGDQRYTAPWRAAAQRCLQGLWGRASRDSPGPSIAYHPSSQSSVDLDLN
protocol_text: TGR5 cAMP Assay using Cisbio cAMP Dynamic2 htrf kit (hTGR5CRE-luc HEK 293 cells)
Assay type: cell-based
test_settings: h-TGR5 cAMP EC50, Table 1; read-out: cAMP (EC50)
pEC50: −log10 of the molar value.
Overview of reported pEC50 across a group of compounds:

Check out these entries, answers already filled in.
CC(C)(c1ccc(S(N)(=O)=O)c(Cl)c1)c1cnc(SCc2c(F)cc(C(=O)O)cc2F)n1-c1ccc(F)cn1 | 6.00 to 7.00
COc1cc(-n2c(C(C)(C)c3ccc(S(N)(=O)=O)c(Cl)c3)cnc2SCc2ccc(S(=O)(=O)NC(=O)NN3CCCCC3)cc2Cl)ccc1F | 6.00 to 7.00
CC(C)(c1ccc(Cl)c(OCCCN2CCOCC2)c1)c1cnc(SCc2c(F)cccc2Cl)n1-c1ccc(F)cc1 | 6.00 to 7.00

Field pEC50 (entry `COc1cc(C(C)(C)c2cnc(SCc3c(F)cc(C(=O)NCCS(=O)(=O)O)cc3F)n2-c2ccc(F)cc2)ccc1Cl` ) reads > 7.00

Field pEC50 (entry `COc1cc(C(C)(C)c2cnc(COc3c(F)cc(C(=O)O)cc3Cl)n2-c2ccc(F)cc2)ccc1Cl` ) reads 6.00 to 7.00

Field pEC50 (entry `CC(C)(c1ccc(Cl)c(Cl)c1)c1cnc(SCC2CCN(S(C)(=O)=O)CC2)n1-c1ccc(F)cc1` ) reads 6.00 to 7.00
